- Tested on: HeLa
- testProtocol: Cytotoxicity against human HeLa cells assessed as reduction in cell viability at 50 uM after 24 hrs by MTT assay relative to control
- Format: toxicity, cell-based
recordedMetric: Activity (%)
Give the value in % but do not write % after it.

- COc1ccccc1NC(=S)NC(=O)c1ccc2c(c1)OCO2: 1.7
- O=C(NC(=S)Nc1cc(Br)cc(C(F)(F)F)c1)c1ccc2c(c1)OCO2: 5.59
- CC(C)c1cc(Br)c(NC(=O)Nc2cccnc2)c(Br)c1: 14.81
- NS(=O)(=O)c1ccc(CCNC(=S)NC(=O)c2ccc3c(c2)OCO3)cc1: 4.26
- COc1ccc(NC(=S)NC(=O)c2ccc3c(c2)OCO3)cc1: 1.38

Let us move to another entry and its Activity.
GET Activity | system: HeLa | item: `Cc1nc(/N=N/c2ccc(S(=O)(=O)O)cc2S(=O)(=O)O)c(COP(=O)(O)O)c(C=O)c1O`
20.43
